system: A549; assay: Euclidean distance of Cell Painting phenotypic profile (signed KS, 77 features) to DMSO centroid (dimensionless distance); 5 or 10 uM (library dependent); higher = stronger phenotypic change vs DMSO (phenoactivity); details: 48 h
Counter-ions that a name gives are not always drawn.
Give true when the value for Euclidean distance is at least 0.9. Give false when it is less.

INSERT INTO results (compound, label_value) VALUES
  ('CCOC(N)=O', 'false'),
  ('CCCCNc1ncc(-c2ccc(CN3CCOCC3)cn2)c(NC2CCC(O)CC2)n1 (stereo not drawn)', 'true'),
  ('O=S(=O)(c1ccccc1)N(CC(F)(F)F)c1ccc(C(O)(C(F)(F)F)C(F)(F)F)cc1', 'true'),
  ('O=c1c(O)c(-c2cc(O)c(O)c(O)c2)oc2cc(O)cc(O)c12', 'true'),
  ('CO[C@H]1C[C@@H]2CC[C@@H](C)[C@@](O)(O2)C(=O)C(=O)N2CCCC[C@H]2C(=O)O[C@H]([C@H](C)C[C@@H]2CC[C@@H](OCCO)[C@H](OC)C2)CC(=O)[C@H](C)/C=C(\C)[C@@H](O)[C@@H](OC)C(=O)[C@H](C)C[C@H](C)/C=C/C=C/C=C/1C [Everolimus (RAD001)]', 'true'),
  ('CC1(C)Cc2c(-c3ccccc3)c(-c3ccc(Cl)cc3)c(CC(=O)O)n2C1', 'true'),
  ('CCC(CC)(NC(=O)C(C)C)C(=O)N[C@@H](CCCN=C(N)N)C(=O)NC1(C(=O)NC(c2ccc(F)cc2)c2ccc(F)cc2)CCCC1', 'false'),
  ('NC(=O)c1cnc(N[C@@H]2CCCC[C@@H]2N)nc1Nc1cccc(-n2nccn2)c1', 'true'),
  ('CC(C)(C)NCC(O)c1cc(O)cc(O)c1 (stereo not drawn) [Terbutaline Sulfate]', 'false'),
  ('C=C[C@@H]1C[C@]1(NC(=O)[C@@H]1C[C@@H]2CN1C(=O)[C@H](C(C)(C)C)NC(=O)O[C@@H]1C[C@H]1CCCCCc1nc3ccc(OC)cc3nc1O2)C(=O)NS(=O)(=O)C1CC1', 'true'),
  ('O=C(/C=C/c1ccccc1)NC(NC(=S)Nc1cccc2cccnc12)C(Cl)(Cl)Cl (stereo not drawn)', 'true'),
  ('O=C(Cn1cnnn1)N[C@@H]1C(=O)N2C(C(=O)O)=C(CSc3nncs3)CS[C@H]12 [Ceftezole]', 'false'),
  ('CN(C)c1ccc(C(=C2C=CC(=[N+](C)C)C=C2)c2ccc(N(C)C)cc2)cc1', 'true'),
  ('CONC(=O)Nc1ccc(-c2sc3c(c2CN(C)C)c(=O)n(-c2ccc(OC)nn2)c(=O)n3Cc2c(F)cccc2F)cc1', 'true'),
  ('COc1ccccc1O', 'false'),
  ('CCCCC[C@H](O)/C=C/[C@H]1[C@H](O)CC(=O)[C@@H]1C/C=C\CCCC(=O)O [Prostaglandin E2 (PGE2)]', 'false'),
  ('Cc1ccc(C(=O)Nc2ccc(CN3CCN(C)CC3)c(C(F)(F)F)c2)cc1C#Cc1cnc2[nH]ncc2c1 [GZD824 Dimesylate]', 'true'),
  ('O=C(COc1ccc(Cl)cc1)N1CCN(Cc2ccc3c(c2)OCO3)CC1 [Fipexide hydrochloride]', 'true'),
  ('CCN(CCO)CCCC(C)Nc1ccnc2cc(Cl)ccc12 (stereo not drawn) [Hydroxychloroquine Sulfate]', 'true'),
  ('N#Cc1ccc(Oc2ccc3c(c2)COB3O)cc1', 'true'),
  ('NCCc1c[nH]cn1 [Histamine]', 'true'),
  ('O=S(=O)(O)c1cc(O)ccc1O [Ethamsylate]', 'false'),
  ('CCN(CC)C(=O)Nc1ccc(OCC(O)CNC(C)(C)C)c(C(C)=O)c1 (stereo not drawn) [Celiprolol hydrochloride]', 'false'),
  ('CCC(=O)N1CC[C@H](Nc2ncnc3c2CN(c2cnc(OC)c(C(F)(F)F)c2)CC3)C1', 'true'),
  ('COc1cc2c(Oc3ccc4[nH]c(C)cc4c3F)ncnc2cc1OCCCN1CCCC1 [Cediranib Maleate]', 'true'),
  ('COc1cc(C(C)=O)ccc1O', 'true'),
  ('CC[C@H](Nc1ncnc2[nH]cnc12)c1nc2cccc(F)c2c(=O)n1-c1ccccc1', 'false');
